All figures here come from patent US20250115600A1.

tested-on: AKT1 E17K (Homo sapiens (Human), UniProt P31749, E17K)
Sequence (P31749 whole entry E17K): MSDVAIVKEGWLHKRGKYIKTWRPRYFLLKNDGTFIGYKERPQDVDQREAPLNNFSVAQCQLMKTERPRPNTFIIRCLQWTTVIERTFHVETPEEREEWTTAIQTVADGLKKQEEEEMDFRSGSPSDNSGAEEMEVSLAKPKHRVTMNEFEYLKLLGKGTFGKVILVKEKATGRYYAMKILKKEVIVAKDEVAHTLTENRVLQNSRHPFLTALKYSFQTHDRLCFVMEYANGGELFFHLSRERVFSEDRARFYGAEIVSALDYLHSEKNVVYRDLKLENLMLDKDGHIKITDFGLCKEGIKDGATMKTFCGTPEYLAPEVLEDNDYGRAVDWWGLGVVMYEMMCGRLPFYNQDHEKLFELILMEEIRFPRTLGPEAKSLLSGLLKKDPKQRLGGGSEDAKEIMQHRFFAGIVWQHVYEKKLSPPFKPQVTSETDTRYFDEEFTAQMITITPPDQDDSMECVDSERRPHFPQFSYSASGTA
procedure-details: Live cell target engagement (NanoBRET) in HEK293 cells
Type: cell-based
measure: AKT1 E17K IC50: Selectivity vs AKT1 WT

smiles-representation	measure	endpoint-value
Nc1ncccc1-c1nc2ccc(C(F)F)nc2n1-c1ccc(CNC(=O)Cc2ccc(C=O)c(O)c2)cc1	AKT1 E17K IC50: Selectivity vs AKT1 WT	5.8
Nc1ncccc1-c1nc2cccnc2n1-c1ccc(CNC(=O)Cc2ccc(C=O)c(O)c2)cc1	AKT1 E17K IC50: Selectivity vs AKT1 WT	4.6
Nc1ncccc1-c1nc2cccnc2n1-c1ccc(CNC(=O)c2cc(C=O)c(O)cn2)cc1	AKT1 E17K IC50: Selectivity vs AKT1 WT	2.7
Nc1ncccc1-c1nc2cccnc2n1-c1ccc(CNC(=O)c2ccc(O)c(C=O)n2)cc1	AKT1 E17K IC50: Selectivity vs AKT1 WT	1.8

* * *

Examples of molecules with documented AKT1 E17K IC50: Selectivity vs AKT2 follow.
tested-on: AKT1 E17K (Homo sapiens (Human), UniProt P31749, E17K)
procedure-details: Live cell target engagement (NanoBRET) in HEK293 cells
Type: cell-based
measure: AKT1 E17K IC50: Selectivity vs AKT2

smiles-representation	measure	endpoint-value
Nc1ncccc1-c1nc2ccc(-c3ccccc3)nc2n1-c1ccc(CNC(=O)C2(c3cnc(C=O)c(O)c3)CC2)cc1	AKT1 E17K IC50: Selectivity vs AKT2	490
Nc1ncccc1-c1nc2cccnc2n1-c1ccc(CNCCc2ccc(C=O)c(O)c2F)cc1	AKT1 E17K IC50: Selectivity vs AKT2	2.5
Cc1ccc2nc(-c3cccnc3N)n(-c3ccc(C4(NC(=O)Cc5ccc(C=O)c(O)c5F)CC4)cc3)c2n1	AKT1 E17K IC50: Selectivity vs AKT2	20
Nc1ncccc1-c1nc2ccc(-c3ccccc3)nc2n1-c1ccc(C(=O)NCc2ccc(O)c(C=O)c2)cc1	AKT1 E17K IC50: Selectivity vs AKT2	23

* * *

tested-on: AKT2 (Homo sapiens (Human))
procedure-details: Live cell target engagement (NanoBRET) in HEK293 cells
Assay type: cell-based
test-parameters: HEK293, 2 hours at 37° C.
Examples of compounds with documented IC50 follow.
measure: IC50

compound	endpoint-value
Nc1ncccc1-c1nc2ccc(-c3cccnc3)nc2n1-c1ccc(CNC(=O)Cc2ccc(C=O)c(O)c2F)cc1	> 500 nM
CC(=O)Nc1cc(CCNCc2ccc(-n3c(-c4cccnc4N)nc4ccc(-c5ccccc5)nc43)cc2)ccc1C=O	< 100 nM
Nc1ncccc1-c1nc2ccc(-c3ccccc3)nc2n1-c1ccc(C(=O)NCC#Cc2ccc(C=O)c(O)c2)cc1	> 500 nM
Nc1ncccc1-c1nc2ccc(-n3cccn3)nc2n1-c1ccc(C2(NC(=O)Cc3ccc(C=O)c(O)c3F)CC2)cc1	< 100 nM
CC(=O)Nc1c(C=O)ccc(CCNCc2ccc(-n3c(-c4cccnc4N)nc4ccc(-c5ccccc5)nc43)cc2)c1F	< 100 nM
Nc1ncccc1-c1nc2ccc(C3CC3)nc2n1-c1ccc(CNC(=O)Cc2ccc(C=O)c(O)c2)cc1	> 500 nM
CC(NCCc1ccc(C=O)c(O)c1)c1ccc(-n2c(-c3cccnc3N)nc3ccc(-c4ccccc4)nc32)cc1 (stereo not shown)	100 to 500 nM

* * *

tested-on: AKT2 (Homo sapiens (Human), UniProt P31751)
Sequence (P31751 whole entry): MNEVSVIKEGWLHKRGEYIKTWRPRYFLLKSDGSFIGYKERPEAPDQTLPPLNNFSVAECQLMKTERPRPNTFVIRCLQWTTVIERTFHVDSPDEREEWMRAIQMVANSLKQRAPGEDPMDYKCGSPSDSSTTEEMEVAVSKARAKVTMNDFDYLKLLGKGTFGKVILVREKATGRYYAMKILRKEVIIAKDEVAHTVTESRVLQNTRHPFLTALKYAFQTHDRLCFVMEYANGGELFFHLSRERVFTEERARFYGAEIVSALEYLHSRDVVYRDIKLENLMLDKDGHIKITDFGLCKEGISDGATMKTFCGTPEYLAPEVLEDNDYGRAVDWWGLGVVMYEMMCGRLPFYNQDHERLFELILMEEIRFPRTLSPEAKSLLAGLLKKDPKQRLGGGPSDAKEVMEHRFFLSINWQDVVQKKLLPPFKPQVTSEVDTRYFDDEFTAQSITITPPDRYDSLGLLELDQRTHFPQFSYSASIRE
procedure-details: Live cell target engagement (NanoBRET) in HEK293 cells
Type: cell-based
test-parameters: HEK293, 2 h at 37 C; Table 7

smiles-representation	IC50
C#Cc1cccc(-c2ccc3nc(-c4cccnc4N)n(-c4ccc(CNC(=O)c5ccc(C=O)c(O)c5)cc4)c3n2)c1	> 500 nM
C#Cc1cccc(-c2ccc3nc(-c4cccnc4N)n(-c4ccc(CNCCc5ccc(C=O)c(O)c5)cc4)c3n2)c1	> 500 nM

* * *

Examples of compounds with documented AKT1 E17K IC50: Selectivity vs AKT1 WT follow.
tested-on: AKT1 E17K (Homo sapiens (Human), UniProt P31749, E17K)
procedure-details: Live cell target engagement (NanoBRET) in HEK293 cells
Format: cell-based
measure: AKT1 E17K IC50: Selectivity vs AKT1 WT

smiles-representation	endpoint-value
Nc1ncccc1-c1nc2ccc(N3CCOCC3)nc2n1-c1ccc(C2(NC(=O)Cc3ccc(C=O)c(O)c3F)CC2)cc1	1.4
Nc1ncccc1-c1nc2ccc(-c3ccccc3)nc2n1-c1ccc(CNCCCc2ccc(C=O)c(O)c2)cc1	1.5
Nc1ncccc1-c1nc2ccc(-c3ccccc3)nc2n1-c1ccc(CNC(=O)c2cc(F)c(O)c(C=O)c2)cc1	2.7
Nc1ncccc1-c1nc2ccc(-c3ccccc3F)nc2n1-c1ccc(CNC(=O)Cc2ccc(C=O)c(O)c2)cc1	1.8
Nc1ncccc1-c1nc2ccc(-c3ccccc3)nc2n1-c1ccc(CNC(=O)C2(c3ccc(C=O)c(O)c3F)CC2)cc1	5.7
Nc1ncccc1-c1nc2ccc(-c3cccc(N4CCOCC4)c3)nc2n1-c1ccc(CNC(=O)c2cc(F)c(O)c(C=O)c2)cc1	1.5
Nc1ncccc1-c1nc2ccc(-c3ccccc3)nc2n1-c1ccc(CNCCc2ccc(C=O)c(O)c2Cl)cc1	0.86

* * *

tested-on: AKT1 WT (Homo sapiens (Human), UniProt P31749)
Sequence (P31749 whole entry): as the sequence (P31749 whole entry E17K) above, with K17E counted along it
procedure-details: Live cell target engagement (NanoBRET) in HEK293 cells
Format: cell-based
test-parameters: HEK293, 2 h at 37 C; Table 7
pIC50: −log10 of the molar value.
Examples of molecules with documented pIC50 follow.

molecule	pIC50
C#Cc1cccc(-c2ccc3nc(-c4cccnc4N)n(-c4ccc(CNCCc5ccc(C=O)c(O)c5)cc4)c3n2)c1 [Compound B]	6.30 to 7.00
C#Cc1cccc(-c2ccc3nc(-c4cccnc4N)n(-c4ccc(CNC(=O)c5ccc(C=O)c(O)c5)cc4)c3n2)c1 [Compound A]	> 7.00

* * *

tested-on: AKT1 WT (Homo sapiens (Human), UniProt P31749)
procedure-details: Live cell target engagement (NanoBRET) in HEK293 cells
Format: cell-based
test-parameters: HEK293, 2 hours at 37° C.

smiles-representation	IC50
CS(=O)(=O)Nc1cccc(-c2ccc3nc(-c4cccnc4N)n(-c4ccc(CNCCc5ccc(C=O)c(O)c5)cc4)c3n2)c1	< 0.1 µM
Nc1ncccc1-c1nc2ccc(-c3cccc(N4CCOCC4)c3)nc2n1-c1ccc(CCNCc2ccc(C=O)c(O)c2)cc1	< 0.1 µM
Nc1ncccc1-c1nc2ccc(-c3ccccc3)nc2n1-c1ccc(C2(NC(=O)Cc3ccc(C=O)c(O)c3F)CC2)cc1	< 0.1 µM
Nc1ncccc1-c1nc2ccc(N3CCOCC3)nc2n1-c1ccc(CNC(=O)Cc2ccc(C=O)c(O)c2)cc1	< 0.1 µM
Cc1ccc2nc(-c3cccnc3N)n(-c3ccc(CNC(=O)Cc4ccc(C=O)c(O)c4)cc3)c2n1	< 0.1 µM
Nc1ncccc1-c1nc2cccnc2n1-c1ccc(CNC(=O)Cc2ccc(C=O)c(NC(=O)C3CC3)c2)cc1	0.1 to 0.5 µM
Nc1ncccc1-c1nc2ccc(-c3ccccc3)nc2n1-c1ccc(CNCCc2ccc(C=O)cc2)cc1	0.1 to 0.5 µM

* * *

tested-on: AKT1 E17K (Homo sapiens (Human), UniProt P31749, E17K)
procedure-details: Live cell target engagement (NanoBRET) in HEK293 cells
Type: cell-based
test-parameters: HEK293, 2 hours at 37° C.
pIC50: −log10 of the molar value.

compound	pIC50
Nc1ncccc1-c1nc2ccc(-c3ccccc3)nc2n1-c1ccc(C2(NC(=O)Cc3ccc(C=O)c(O)c3F)CC2)cc1 [Compound 31]	> 7.00
Cc1c(CC(=O)NCc2ccc(-n3c(-c4cccnc4N)nc4ccc(-c5ccccc5)nc43)cc2)ccc(C=O)c1O [Example 14]	> 7.00
CC(=O)Nc1cc(CCNCc2ccc(-n3c(-c4cccnc4N)nc4cccnc43)cc2)ccc1C=O [Compound 98]	> 7.00
Nc1ncccc1-c1nc2ccc(-c3ccccc3)nc2n1-c1ccc(CNCCc2ccc(O)c(C=O)c2)cc1 [Compound 135]	> 7.00
Nc1ncccc1-c1nc2cc(-c3ccccc3)cnc2n1-c1ccc(CNCCc2ccc(C=O)c(O)c2)cc1 [Compound 124]	6.30 to 7.00
Nc1ncccc1-c1nc2ccc(-c3ccccc3)nc2n1-c1ccc(CNCCc2ccc(C=O)cc2)cc1 [Compound 125]	6.30 to 7.00
CN(C)C(=O)Nc1cc(CC(=O)NCc2ccc(-n3c(-c4cccnc4N)nc4cccnc43)cc2)ccc1C=O [Compound 43]	> 7.00

* * *

tested-on: AKT2 (Homo sapiens (Human))
procedure-details: Live cell target engagement (NanoBRET) in HEK293 cells
Format: cell-based
test-parameters: HEK293, 2 hours at 37° C.
pIC50: −log10 of the molar value.
Examples of molecules with documented pIC50 follow.
measure: pIC50

molecule	endpoint-value
Nc1ncccc1-c1nc2ccc(C3CC3)nc2n1-c1ccc(CNC(=O)Cc2ccc(C=O)c(O)c2Cl)cc1 [Example 22]	< 6.30
CC(=O)Nc1cc(CC(=O)NCc2ccc(-n3c(-c4cccnc4N)nc4cccnc43)cc2)ccc1C=O [Compound 91]	< 6.30
Nc1ncccc1-c1nc2ccc(C(F)F)nc2n1-c1ccc(CNC(=O)Cc2ccc(C=O)c(O)c2)cc1 [Example 7]	< 6.30
Nc1ncccc1-c1nc2ccc(-c3ccccc3)nc2n1-c1ccc(CNC(=O)c2ccc(C=O)c(O)c2F)cc1 [Compound 85]	6.30 to 7.00
Nc1ncccc1-c1nc2cccnc2n1-c1ccc(CNC(=O)Cc2ccc(C=O)c(O)c2F)cc1 [Compound 93]	< 6.30
CC(C)(O)c1ccc2nc(-c3cccnc3N)n(-c3ccc(CNC(=O)Cc4ccc(C=O)c(O)c4)cc3)c2n1 [Example 17]	< 6.30
Nc1ncccc1-c1nc2ccc(-c3cccc(N4CCOCC4)c3)nc2n1-c1ccc(CNC(=O)Cc2ccc(C=O)c(O)c2Cl)cc1 [Example 13]	> 7.00
